B1: INTS4 (parent)
chain: TIIEPAGESDNPLRFTSGLVVALD

# Variants of: B1
# test-description: protein stability index of a GFP-peptide fusion (GPS, HEK-293T) (PSI 1-6); higher = more stable;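 further: lentivirally expressed fusions sorted by FACS into six bins by GFP to DsRed ratio, PSI derived from sequencing read proportions per bin multiplied by bin number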
# condition-notes: c terminus: a fixed tail appended
Think of 3 as a floor: if protein stability index stands on it or above, it is True; beneath it, False.

I'd appreciate it if you could say whether TIIEPAGESDNPLRFTSGDVVALD [L19D] has protein stability index at least equal to 3.
True

I'd appreciate it if you could say whether TIIEPAGESDNPLRFQSGLVVALD [T16Q] has protein stability index at least equal to 3.
True

I'd appreciate it if you could say whether TIIEPAEESDNPLRFTSGLVVALD [G7E] has protein stability index at least equal to 3.
True

I'd appreciate it if you could say whether TIIEPAGEEDNPLRFTSGLVVALD [S9E] has protein stability index at least equal to 3.
True

I'd appreciate it if you could say whether TIIEVAGESDNPLRFTSGLVVALD [P5V] has protein stability index at least equal to 3.
False

I'd appreciate it if you could say whether TICEPAGESDNPLRFTSGLVVALD [I3C] has protein stability index at least equal to 3.
True

I'd appreciate it if you could say whether TIIEPAGESDNWLRFTSGLVVALD [P12W] has protein stability index at least equal to 3.
False

I'd appreciate it if you could say whether TIIEPAGESDNPLRFTSMLVVALD [G18M] has protein stability index at least equal to 3.
False

I'd appreciate it if you could say whether TIIEPAGESDNPLRFTSILVVALD [G18I] has protein stability index at least equal to 3.
False

I'd appreciate it if you could say whether TIIEPAGESDNPLRLTSGLVVALD [F15L] has protein stability index at least equal to 3.
True

I'd appreciate it if you could say whether TIIKPAGESDNPLRFTSGLVVALD [E4K] has protein stability index at least equal to 3.
False

I'd appreciate it if you could say whether TIIEPAGESDNPLRFTWGLVVALD [S17W] has protein stability index at least equal to 3.
False

I'd appreciate it if you could say whether TIIEPAGENDNPLRFTSGLVVALD [S9N] has protein stability index at least equal to 3.
True

I'd appreciate it if you could say whether TIIEPAGESDSPLRFTSGLVVALD [N11S] has protein stability index at least equal to 3.
False

I'd appreciate it if you could say whether TITEPAGESDNPLRFTSGLVVALD [I3T] has protein stability index at least equal to 3.
True

I'd appreciate it if you could say whether TIIEPAGESDNPLRFTSGWVVALD [L19W] has protein stability index at least equal to 3.
False

I'd appreciate it if you could say whether TIIEPAGESENPLRFTSGLVVALD [D10E] has protein stability index at least equal to 3.
False

I'd appreciate it if you could say whether TIIEPAGESDNPLRPTSGLVVALD [F15P] has protein stability index at least equal to 3.
True

I'd appreciate it if you could say whether TIIEPAGESGNPLRFTSGLVVALD [D10G] has protein stability index at least equal to 3.
False

I'd appreciate it if you could say whether TIIEPAGESDNPLRFTVGLVVALD [S17V] has protein stability index at least equal to 3.
False

I'd appreciate it if you could say whether TIIEPAGESDNPIRFTSGLVVALD [L13I] has protein stability index at least equal to 3.
False

I'd appreciate it if you could say whether TIIEPAGESDNLLRFTSGLVVALD [P12L] has protein stability index at least equal to 3.
False

I'd appreciate it if you could say whether TIIEPAGESDNPLRFTSGLVVQLD [A22Q] has protein stability index at least equal to 3.
False

I'd appreciate it if you could say whether TIIEPAGESNNPLRFTSGLVVALD [D10N] has protein stability index at least equal to 3.
True

I'd appreciate it if you could say whether TIPEPAGESDNPLRFTSGLVVALD [I3P] has protein stability index at least equal to 3.
True

I'd appreciate it if you could say whether TIIEPAGESDNRLRFTSGLVVALD [P12R] has protein stability index at least equal to 3.
False

I'd appreciate it if you could say whether TIIEPAGESDNPLRFTSGLVVARD [L23R] has protein stability index at least equal to 3.
True

I'd appreciate it if you could say whether TCIEPAGESDNPLRFTSGLVVALD [I2C] has protein stability index at least equal to 3.
False

I'd appreciate it if you could say whether TQIEPAGESDNPLRFTSGLVVALD [I2Q] has protein stability index at least equal to 3.
True

I'd appreciate it if you could say whether TIIEPAGESWNPLRFTSGLVVALD [D10W] has protein stability index at least equal to 3.
False

I'd appreciate it if you could say whether TIIEPAGESDFPLRFTSGLVVALD [N11F] has protein stability index at least equal to 3.
False

I'd appreciate it if you could say whether TIIEPAGESDNPLRFTSGLVMALD [V21M] has protein stability index at least equal to 3.
False

I'd appreciate it if you could say whether TIIEPAGESDNPLRFHSGLVVALD [T16H] has protein stability index at least equal to 3.
False

I'd appreciate it if you could say whether LIIEPAGESDNPLRFTSGLVVALD [T1L] has protein stability index at least equal to 3.
False

I'd appreciate it if you could say whether TIIEAAGESDNPLRFTSGLVVALD [P5A] has protein stability index at least equal to 3.
False

I'd appreciate it if you could say whether TIIEPAGESDNPLRFTSGLVVAAD [L23A] has protein stability index at least equal to 3.
True

I'd appreciate it if you could say whether TIIEPAFESDNPLRFTSGLVVALD [G7F] has protein stability index at least equal to 3.
False

I'd appreciate it if you could say whether TIIEPAGESDMPLRFTSGLVVALD [N11M] has protein stability index at least equal to 3.
False

I'd appreciate it if you could say whether TIIEPAMESDNPLRFTSGLVVALD [G7M] has protein stability index at least equal to 3.
False

I'd appreciate it if you could say whether TIIEPAGESDNPLRFYSGLVVALD [T16Y] has protein stability index at least equal to 3.
False

I'd appreciate it if you could say whether TIIEPAGESDNPLRFTSGLEVALD [V20E] has protein stability index at least equal to 3.
True

I'd appreciate it if you could say whether TIIEPAGESDNPLRFTSGLNVALD [V20N] has protein stability index at least equal to 3.
True

I'd appreciate it if you could say whether TIIEPAGESDNPLRFTSGLVSALD [V21S] has protein stability index at least equal to 3.
True

I'd appreciate it if you could say whether TIIEPAGESDRPLRFTSGLVVALD [N11R] has protein stability index at least equal to 3.
True

I'd appreciate it if you could say whether TIIEPAGEDDNPLRFTSGLVVALD [S9D] has protein stability index at least equal to 3.
True

I'd appreciate it if you could say whether TIIEPAGESDNPHRFTSGLVVALD [L13H] has protein stability index at least equal to 3.
True

I'd appreciate it if you could say whether TIIEPAGESDNPLRFTSGCVVALD [L19C] has protein stability index at least equal to 3.
True

I'd appreciate it if you could say whether TIIEPAGESDNPLRFLSGLVVALD [T16L] has protein stability index at least equal to 3.
False

I'd appreciate it if you could say whether TIIEPAGWSDNPLRFTSGLVVALD [E8W] has protein stability index at least equal to 3.
False

I'd appreciate it if you could say whether TIIEYAGESDNPLRFTSGLVVALD [P5Y] has protein stability index at least equal to 3.
False

I'd appreciate it if you could say whether TIIEPAGESDNPLRTTSGLVVALD [F15T] has protein stability index at least equal to 3.
True

I'd appreciate it if you could say whether TIIEPAGESDCPLRFTSGLVVALD [N11C] has protein stability index at least equal to 3.
False

I'd appreciate it if you could say whether TIIEPAGESDNPLRFTSGLYVALD [V20Y] has protein stability index at least equal to 3.
False

I'd appreciate it if you could say whether TIIEPAGESDNGLRFTSGLVVALD [P12G] has protein stability index at least equal to 3.
False

I'd appreciate it if you could say whether TIIEPAGESDNPLRFTSGLVVPLD [A22P] has protein stability index at least equal to 3.
True

I'd appreciate it if you could say whether TIIEPAGESDNPLRFTKGLVVALD [S17K] has protein stability index at least equal to 3.
False

I'd appreciate it if you could say whether TIIERAGESDNPLRFTSGLVVALD [P5R] has protein stability index at least equal to 3.
False

I'd appreciate it if you could say whether TLIEPAGESDNPLRFTSGLVVALD [I2L] has protein stability index at least equal to 3.
True

I'd appreciate it if you could say whether TIIEPAGESDNPLRFTSGLVGALD [V21G] has protein stability index at least equal to 3.
True

I'd appreciate it if you could say whether TIIEPAGNSDNPLRFTSGLVVALD [E8N] has protein stability index at least equal to 3.
False

I'd appreciate it if you could say whether TIIEPAGESDNPLAFTSGLVVALD [R14A] has protein stability index at least equal to 3.
True

I'd appreciate it if you could say whether TIIEPACESDNPLRFTSGLVVALD [G7C] has protein stability index at least equal to 3.
False

I'd appreciate it if you could say whether TIIEPAGESDNPLRFTSGLVVTLD [A22T] has protein stability index at least equal to 3.
False

I'd appreciate it if you could say whether TIGEPAGESDNPLRFTSGLVVALD [I3G] has protein stability index at least equal to 3.
True

I'd appreciate it if you could say whether TIIEPAGESDNPLRFTSGGVVALD [L19G] has protein stability index at least equal to 3.
True

I'd appreciate it if you could say whether TIIEPAGESDNPLRFTSGLVEALD [V21E] has protein stability index at least equal to 3.
True

I'd appreciate it if you could say whether TIIEPAGESDNPLRFTGGLVVALD [S17G] has protein stability index at least equal to 3.
False

I'd appreciate it if you could say whether TIIHPAGESDNPLRFTSGLVVALD [E4H] has protein stability index at least equal to 3.
False

I'd appreciate it if you could say whether TIIEPVGESDNPLRFTSGLVVALD [A6V] has protein stability index at least equal to 3.
False

I'd appreciate it if you could say whether TIIEPAGESQNPLRFTSGLVVALD [D10Q] has protein stability index at least equal to 3.
False

I'd appreciate it if you could say whether TIIEPFGESDNPLRFTSGLVVALD [A6F] has protein stability index at least equal to 3.
False

I'd appreciate it if you could say whether TIIEPSGESDNPLRFTSGLVVALD [A6S] has protein stability index at least equal to 3.
False

I'd appreciate it if you could say whether TIIEPAGERDNPLRFTSGLVVALD [S9R] has protein stability index at least equal to 3.
False

I'd appreciate it if you could say whether TIIEPAGESDNPLRFTSGLVVAHD [L23H] has protein stability index at least equal to 3.
True

I'd appreciate it if you could say whether TIIEPAIESDNPLRFTSGLVVALD [G7I] has protein stability index at least equal to 3.
False

I'd appreciate it if you could say whether TIIEPAGESDNPLRFTSYLVVALD [G18Y] has protein stability index at least equal to 3.
False

I'd appreciate it if you could say whether TIIEPAGESDNPLRFMSGLVVALD [T16M] has protein stability index at least equal to 3.
False

I'd appreciate it if you could say whether TIIEPAGESDNPLRFTSGLVVASD [L23S] has protein stability index at least equal to 3.
True

I'd appreciate it if you could say whether TIIEPAGESDNPLRFTSGLVVAYD [L23Y] has protein stability index at least equal to 3.
True

I'd appreciate it if you could say whether TIIEPAGESDNPLRNTSGLVVALD [F15N] has protein stability index at least equal to 3.
True

I'd appreciate it if you could say whether TIIEPAGESDNPLRFTRGLVVALD [S17R] has protein stability index at least equal to 3.
False

I'd appreciate it if you could say whether TIIEPDGESDNPLRFTSGLVVALD [A6D] has protein stability index at least equal to 3.
True

I'd appreciate it if you could say whether TIIEPAGESDNPLRFTLGLVVALD [S17L] has protein stability index at least equal to 3.
True

I'd appreciate it if you could say whether TIIEPAGECDNPLRFTSGLVVALD [S9C] has protein stability index at least equal to 3.
False

I'd appreciate it if you could say whether TIIEPAWESDNPLRFTSGLVVALD [G7W] has protein stability index at least equal to 3.
False

I'd appreciate it if you could say whether TIIEPAGYSDNPLRFTSGLVVALD [E8Y] has protein stability index at least equal to 3.
False
